B1: USP39 (parent)
chain: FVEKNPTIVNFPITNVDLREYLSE

Variants of: B1
Experiment: protein stability index of a GFP-peptide fusion (GPS, HEK-293T) (PSI 1-6); higher = more stable;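 also: lentivirally expressed fusions sorted by FACS into six bins by GFP to DsRed ratio, PSI derived from sequencing read proportions per bin multiplied by bin number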
Details: c terminus: a fixed tail appended
Kind request: treat 2 as inclusive, so protein stability index at 2 or higher is Condition met, anything lower is Condition not met.

Recorded results for 8 variants are shown here.
primary sequence: FVEKNPTIVNFPITNGDLREYLSE
group: Condition not met

primary sequence: FVTKNPTIVNFPITNVDLREYLSE
group: Condition not met

primary sequence: FVEKNPTIVNFPITNVDLREYMSE
group: Condition met

primary sequence: FVEKNPTIHNFPITNVDLREYLSE
group: Condition not met

primary sequence: FVEKNPTICNFPITNVDLREYLSE
group: Condition not met

primary sequence: FVEKMPTIVNFPITNVDLREYLSE
group: Condition met

primary sequence: FVEKLPTIVNFPITNVDLREYLSE
group: Condition met

primary sequence: FVEKNPAIVNFPITNVDLREYLSE
group: Condition not met

Record `FVEKNPTNVNFPITNVDLREYLSE` ; criterion: protein stability index no lower than 2. Met?
Condition met

Evaluate `FVEKNPTIVNFPITNVALREYLSE` : protein stability index at minimum 2?
Condition met

Textbook exercise: given the entry `FVEKNPTIVNFPITNVDLREDLSE` , state whether its protein stability index is greater than or equal to 2.
Condition not met

Is it the case that `FVEKNPTIVNFPIDNVDLREYLSE` has protein stability index reaching or exceeding 2?
Condition met

Please indicate if the recorded protein stability index for `FVEKNPTIVNFPITNVDLREYLSI` meets or exceeds 2.
Condition not met

Is protein stability index for `FAEKNPTIVNFPITNVDLREYLSE` at or above 2?
Condition met

Has `FVEKNPTIVNFPITNVDLRLYLSE` a recorded protein stability index greater than or equal to 2?
Condition not met

Check if protein stability index >= 2 (inclusive). Item: `FVEKNPTIVNFPITNVDLRESLSE`
Condition met

Check this variant for protein stability index at or above 2: `FVEKNPTIVRFPITNVDLREYLSE`
Condition not met
